- run description: Inhibition of HTLV-1 integrase strand transfer activity
- Parameters: species or system Human T-cell leukemia virus type I
test readout: IC50 (µM)
Numbers only, in µM.

# mol smiles, measure unit, IC50
measured = [
    ("COc1cc(/C=C/c2ccc3ccc(C(=O)O)c(O)c3n2)cc(OC)c1O", "µM", 7.2),
]

Returns the measured IC50 for the input molecule. Input: COc1cc(/C=C/c2ccc3ccc(C(=O)O)c(O)c3n2)cc(O)c1O
5.2

----------
- run description: Cytotoxic activity against human PBMC cells
- Type: cell-based
Answer each item with its documented CC50.
One number for each entry, in µM.

Observe how each entry below is paired with its result.
# mol smiles, CC50, µM
rows = [
    ("O=C(O)C(=O)CC(=O)c1cccc(Cc2ccccc2)c1", 220),
    ("O=C(O)c1ccc2ccc(/C=C/c3cc(O)c(O)c(O)c3)nc2c1O", 10.7),
]

Shifting focus to the molecule that follows.
Returns the measured CC50 for the input molecule. Input: O=C(O)C(=O)CC(=O)c1cccn1Cc1ccc(F)cc1
520
